Exercise: state measured GI50 for each of the compounds provided.
- Test system: OVCAR-8
- experiment summary: NCI tumour cell line growth inhibition, 48 h
Activity calls are given as the source filed them. Rule as the data show it: active = GI50 up to about 1.1 µM and inactive = higher.

Worked examples follow.
>  <compound>
O=C(NNC(=O)c1c(Cl)c(Cl)c(Cl)c(Cl)c1-c1nc2ccccc2[nH]1)c1ccc(Cl)cc1

>  <GI50>
66.1 µM (inactive)

$$$$
>  <compound>
CSc1ccc(/C=C2\N=C(c3ccccc3)N(/N=C/c3cc4cc(C)ccc4nc3Cl)C2=O)cc1

>  <GI50>
16.1 µM (inactive)

$$$$
>  <compound>
CCOC(=O)C(=CNc1ccc(S(N)(=O)=O)cc1)C(=O)OCC

>  <GI50>
> 100 µM (inactive)

$$$$
>  <compound>
NNC(=O)Nc1nc2ccc(NN)cc2[nH]1

>  <GI50>
54 µM (inactive)

$$$$

Okay, next one:
Quickly give me recorded GI50 for O=NN(CCCl)C(=O)NC1CCSc2ccccc21 (stereo not given) > 100 µM (inactive)
